Molecular target: T1, human PCSK9 (human, UniProt Q8NBP7 31-692, limits assumed)
T1 construct: It carried an AlexaFluor647 label in the TR-FRET assay only; also called hPCSK9; wild type human PCSK9
T1 sequence (Q8NBP7 31-692 limits assumed): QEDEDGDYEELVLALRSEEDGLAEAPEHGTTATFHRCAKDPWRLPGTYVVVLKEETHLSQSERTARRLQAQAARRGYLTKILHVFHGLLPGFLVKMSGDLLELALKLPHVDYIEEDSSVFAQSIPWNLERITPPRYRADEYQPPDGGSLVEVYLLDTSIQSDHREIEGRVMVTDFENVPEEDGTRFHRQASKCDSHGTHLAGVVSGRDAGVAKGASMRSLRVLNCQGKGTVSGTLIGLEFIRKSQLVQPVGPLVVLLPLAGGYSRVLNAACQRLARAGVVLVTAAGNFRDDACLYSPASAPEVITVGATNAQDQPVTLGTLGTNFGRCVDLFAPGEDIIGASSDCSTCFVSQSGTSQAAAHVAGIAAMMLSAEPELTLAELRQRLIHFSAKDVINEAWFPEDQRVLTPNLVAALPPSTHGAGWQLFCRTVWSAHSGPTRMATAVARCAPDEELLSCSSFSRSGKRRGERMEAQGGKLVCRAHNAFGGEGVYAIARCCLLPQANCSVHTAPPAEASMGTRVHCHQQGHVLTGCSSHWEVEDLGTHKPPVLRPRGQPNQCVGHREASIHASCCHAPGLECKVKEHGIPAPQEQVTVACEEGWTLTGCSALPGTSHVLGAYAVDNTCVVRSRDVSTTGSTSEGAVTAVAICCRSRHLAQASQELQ
Experiment: SPR (Biacore); Fab captured on anti-Fab IgG, PCSK9 injected; 1:1 Langmuir fit
property-name: pKd
pKd (log units): -log10 of the concentration in mol/L.

Example cases with answers are listed next.
- binder: "AX193 Fab (Fab, V domains shown) VH: EVQLLESGGGLVQPGGSLRLSCKASGYTFSSYWMHWVRQAPGKGLEWIGRIDPYNGGTKYNEKFKGKATISRDNSKNTLYLQMNSLRAEDTAVYYCARYGYYLGSYAMDYWGQGTLVTVSS VL: DIQMTQSPSSLSASVGDRVTITCRASQAISKYLNWYQQKPGKAPKLLIYAASSLQSGVPSRFSGSGSGTDFTLTISSLQPEDFATYYCESYDYSLGRYVFGGGTKVEIK"
  pKd: 8.15
- binder: "AX200 Fab (Fab, V domains shown) VH: EVQLLESGGGLVQPGGSLRLSCKASGYTFSSYWMHWVRQAPGKGLEWIGRIDPYNGGTKYNEKFKGKATISRDNSKNTLYLQMNSLRAEDTAVYYCARYGYYLGSYAMDYWGQGTLVTVSS VL: DIQMTQSPSSLSASVGDRVTITCRASQDVSKYLAWYQQKPGKAPKLLIYAASSLQSGVPSRFSGSGSGTDFTLTISSLQPEDFATYYCEAYDYSLSHYVFGGGTKVEIK"
  pKd: 8.02

Now turn to the next binder.
Bench note: what pKd did AX196 Fab (Fab, V domains shown) VH: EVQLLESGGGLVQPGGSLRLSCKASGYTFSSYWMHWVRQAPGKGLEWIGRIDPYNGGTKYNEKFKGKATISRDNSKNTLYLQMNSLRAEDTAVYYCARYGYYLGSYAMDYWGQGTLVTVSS VL: DIQITQSPSSLSASVGDRVTITCRASQDVSRYLAWYQQKPGKAPKLLIYAASSLQSGVPSRFSGSGSGTDFTLTISSLQPEDFATYYCESYDYSLSHYVFGGGTKVEIK show?
7.74
